Field Ki: reported value for UniProtKB P28221; entries drawn from several documents.
Sequence (P28221 whole entry): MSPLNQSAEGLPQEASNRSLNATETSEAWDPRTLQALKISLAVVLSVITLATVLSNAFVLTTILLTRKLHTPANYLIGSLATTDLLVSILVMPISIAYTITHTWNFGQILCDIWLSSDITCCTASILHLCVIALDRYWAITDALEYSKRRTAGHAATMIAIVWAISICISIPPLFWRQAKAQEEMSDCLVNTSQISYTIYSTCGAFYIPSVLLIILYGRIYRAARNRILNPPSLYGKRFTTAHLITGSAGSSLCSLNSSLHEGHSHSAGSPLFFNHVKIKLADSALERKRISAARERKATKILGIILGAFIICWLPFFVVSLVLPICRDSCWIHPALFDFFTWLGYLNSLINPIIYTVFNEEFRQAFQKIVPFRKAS
assay metric: Ki (nM)

>  <molecule>
Cc1ccc2c(OCCN3CCN(Cc4ccc5c(c4)NC(=O)CO5)CC3)cccc2n1

>  <target under test>
UniProtKB P28221

>  <unit of measurement>
nM

>  <assay result>
10

$$$$
>  <molecule>
c1cc2c3c(ccc2[nH]1)CCC(N1CCCCCC1)C3 (centres undefined)

>  <target under test>
UniProtKB P28221

>  <unit of measurement>
nM

>  <assay result>
340

$$$$
>  <molecule>
Cc1ccccc1C(=O)Nc1ccc2[nH]cc(C3CCN(C)CC3)c2n1

>  <target under test>
UniProtKB P28221

>  <unit of measurement>
nM

>  <assay result>
440

$$$$
>  <molecule>
CN1CCC(c2c[nH]c3ccc(NC(=O)CCCCCCCCCCCCCCC(=O)Nc4ccc5[nH]cc(C6CCN(C)CC6)c5c4)cc23)CC1

>  <target under test>
UniProtKB P28221

>  <unit of measurement>
nM

>  <assay result>
11.3

$$$$
>  <molecule>
CN1CCC[C@@H]1Cc1c[nH]c2ccc(C3=CCN(S(=O)(=O)c4cccc5ccccc45)CC3)cc12

>  <target under test>
UniProtKB P28221

>  <unit of measurement>
nM

>  <assay result>
0.88

$$$$
>  <molecule>
CNC(=O)c1ccc2c(c1)CCO[C@H]2CCN1CCN(c2ccc(C(N)=O)cc2)CC1

>  <target under test>
UniProtKB P28221

>  <unit of measurement>
nM

>  <assay result>
4.6

$$$$

[A] CN1CCC[C@@H]1Cc1c[nH]c2ccc(C3=CCN(C(=O)NC45C[C@H]6C[C@@H](C4)C[C@@H](C5)C6)CC3)cc12
[B] O=C(Nc1ccc2[nH]cc(C3CCN(CCCCCCCCCCCN4CCC(c5c[nH]c6ccc(NC(=O)c7ccc(F)cc7)cc56)CC4)CC3)c2c1)c1ccc(F)cc1
[C] Cc1ccc2c(OCCN3CCC(Cc4cccc(N5C[C@@H](C)NC[C@@H]5C)c4)CC3)cccc2n1
Request: Output the entries ranked by Ki from maximum down to minimum. List labels; respect the requested ordering.
Result: B, A, C
